Give change in vivo at 0.3 mg/kg for every item shown.
system: C57BL/6J mice; test: In vivo antihyperglycaemic/antidiabetic activity (OGTT), acute single dose 120-min time-course; settings: Mus musculus, 2 h; male C57BL/6J mice, acute single dose 0,3 mg/kg po, 120-min time-course, n = 6, Mean ± SEM; read-out: In vivo OGTT C57; % Glucose change
One number for each entry, in %.

Worked cases, change in vivo at 0.3 mg/kg given:
N[C@H]1C[C@@H](N2CC3=C(C2)CN(S(=O)(=O)C(F)(F)F)C3)CO[C@@H]1c1cc(F)ccc1F : -27.7
CCOC(=O)N1CC2=C(C1)CN([C@H]1CO[C@H](c3cc(F)ccc3F)[C@@H](N)C1)C2 : -35
CS(=O)(=O)N1CCC2CN([C@H]3CO[C@H](c4cc(F)ccc4F)[C@@H](N)C3)CC2C1 (stereo partly drawn) : -9.8

Look at each compound and report its change in vivo at 0.3 mg/kg.
1. CC(=O)N[C@H]1C[C@@H](N2CC3=C(C2)CN(S(C)(=O)=O)C3)CO[C@@H]1c1cc(F)ccc1F
2. N[C@H]1C[C@@H](N2CC3=C(C2)CN(S(=O)(=O)c2ccc(OC(F)(F)F)cc2)C3)CO[C@@H]1c1cc(F)ccc1F
3. COC(=O)N1CC2=C(C1)CN([C@H]1CO[C@H](c3cc(F)ccc3F)[C@@H](N)C1)C2

[-9.3, -20.5, -13.7]

Look at each compound and report its change in vivo at 0.3 mg/kg.
1. CN(C)S(=O)(=O)N1CC2CN([C@H]3CO[C@H](c4cc(F)ccc4F)[C@@H](N)C3)CC2C1 (stereo partly drawn)
2. N[C@H]1C[C@@H](N2CC3CN(S(=O)(=O)c4ccccc4)CC3C2)CO[C@@H]1c1cc(F)ccc1F (stereo partly drawn)
3. Cc1ccc(S(=O)(=O)N2CC3=C(CN([C@H]4CO[C@H](c5cc(F)ccc5F)[C@@H](N)C4)C3)C2)cc1
4. CC(C)CS(=O)(=O)N1CC2=C(CN([C@H]3CO[C@H](c4cc(F)ccc4F)[C@@H](N)C3)C2)C1
5. CS(=O)(=O)N1CCC2(CCN([C@H]3CO[C@H](c4cc(F)ccc4F)[C@@H](N)C3)C2)C1 (stereo partly drawn)
6. CS(=O)(=O)N1CCC2(CCN([C@H]3CO[C@H](c4cc(F)ccc4F)[C@@H](N)C3)C2)CC1

-7.9
-7.3
-25.1
-25.1
-25.7
-14.2

Look at each compound and report its change in vivo at 0.3 mg/kg.
1. N[C@H]1C[C@@H](N2CC3CNCC3C2)CO[C@@H]1c1cc(F)ccc1F (stereo partly drawn)
2. COc1ccc(S(=O)(=O)N2CC3=C(CN([C@H]4CO[C@H](c5cc(F)ccc5F)[C@@H](N)C4)C3)C2)cc1
3. CC(=O)N1CC2=C(C1)CN([C@H]1CO[C@H](c3cc(F)ccc3F)[C@@H](N)C1)C2

[-16.5, -22, -6.04]

====

assay: Pharmacokinetic study in Wistar rats; format: in vivo; settings: rat, plasma, po; male wistar rats, 2 mg/kg orally, n = 6, Mean ± SD
reportedEndpoint: AUC
Answer as a quantity: numeral, then unit.

Worked cases, AUC given:
N[C@H]1C[C@@H](N2CC3=C(C2)CS(=O)(=O)C3)CO[C@@H]1c1cc(F)ccc1F : 1550 ng·h/mL
N[C@H]1C[C@@H](N2CC3COCC3C2)CO[C@@H]1c1cc(F)ccc1F (stereo partly shown) : 2970 ng·h/mL
CS(=O)(=O)N1CC2=C(CN([C@H]3CO[C@H](c4cc(F)ccc4F)[C@@H](N)C3)C2)C1 : 4750 ng·h/mL

Continue with the compound presented below.
Check the records and state AUC for CS(=O)(=O)N1CC2CN([C@H]3CO[C@H](c4cc(F)ccc4F)[C@@H](N)C3)CC2C1 (stereo partly shown)
888 ng·h/mL
